Test system: NCI/ADR-RES ovarian
Assay: NCI tumour cell line growth inhibition, 48 h

Compound: OCCNc1nc2c(N3CCCC3)nc(N3CCNCC3)nc2nc1NCc1ccccc1
Tested System: NCI/ADR-RES ovarian
TGI: > 100 µM

Compound: O=C(CC(=O)Nc1ccccc1Cl)NNC(Sc1ccccc1)c1cc(N=Nc2ccc(Br)cc2)ccc1O (stereo not drawn)
Tested System: NCI/ADR-RES ovarian
TGI: 5.61 µM

Compound: COc1ccc(-c2nn(-c3cccc(NC(=O)Nc4cccc(C(F)(F)F)c4)c3)cc2-c2ccncc2)cc1Cl
Tested System: NCI/ADR-RES ovarian
TGI: > 100 µM

Compound: CCCCC#Cc1cccc(=O)o1
Tested System: NCI/ADR-RES ovarian
TGI: > 100 µM

Compound: CCOC(=O)c1ccc(NC(NC(=O)CC)(C(F)(F)F)C(F)(F)F)cc1
Tested System: NCI/ADR-RES ovarian
TGI: > 100 µM

Compound: CC1CN=C(N(C)C(=O)Nc2ccc(Cl)c(Cl)c2)S1 (stereo not drawn)
Tested System: NCI/ADR-RES ovarian
TGI: 73.2 µM

Compound: Clc1ccc(-c2nn3c(C45CC6CC(CC(C6)C4)C5)nnc3s2)cc1
Tested System: NCI/ADR-RES ovarian
TGI: > 100 µM

Compound: C=C(C(=O)OC)[C@@H]1C[C@@H](O)[C@]2(C)CC/C=C(\C)CCC[C@H](C)[C@H](O)C1O2
Tested System: NCI/ADR-RES ovarian
TGI: > 100 µM

Compound: O=C1OC(C(O)C(O)C(O)CO)C(O)C1O (stereo not drawn)
Tested System: NCI/ADR-RES ovarian
TGI: > 100 µM

Compound: c1ccc2c(c1)ccc1c3ccccc3ccc21
Tested System: NCI/ADR-RES ovarian
TGI: > 50 µM

Compound: O=[N+]([O-])c1ccc(Cl)cc1N/N=C/c1cccs1
Tested System: NCI/ADR-RES ovarian
TGI: > 100 µM

Compound: Clc1cccc(N=C/C=C/Nc2cccc(Cl)c2)c1
Tested System: NCI/ADR-RES ovarian
TGI: 31.4 µM

Compound: C=CCNc1cccc2c1C(=O)c1ccccc1C2(O)CC=C (stereo not drawn)
Tested System: NCI/ADR-RES ovarian
TGI: 58.4 µM

* * *

Tested on: COLO 205 colon
Test: NCI tumour cell line growth inhibition, 48 h
Measured TGI by item
Endpoint Name: TGI

Molecule: COc1cnnc2c(C)c(-c3ccccc3)nn12
Endpoint Name: TGI
Observed Measurement: > 100 µM
//
Molecule: CCCCC#Cc1cccc(=O)o1
Endpoint Name: TGI
Observed Measurement: 5.3 µM
//
Molecule: CSc1nc(=O)c(C#N)c(-c2ccccc2)n1C1OC(COC(C)=O)C(OC(C)=O)C(OC(C)=O)C1OC(C)=O (stereo not drawn)
Endpoint Name: TGI
Observed Measurement: > 100 µM

* * *

Tested on: UO-31 renal
Assay: NCI tumour cell line growth inhibition, 48 h; in the data active = GI50 below about 0.43 µM; inactive = the rest
Labels: active, inactive

Molecule: Clc1ccc(-c2cn(-c3ccccc3)c(-c3ccccc3)n2)c(Cl)c1
Class Label: inactive
--
Molecule: CC(C)(C)c1nnc2n(c1=O)N=CC(c1ccc(Br)cc1)S2 (stereo not given)
Class Label: inactive
--
Molecule: COc1cccc2c(Nc3ccc(C(=O)NCCN(C)C)cc3)cc(-c3ccccc3)nc12
Class Label: inactive
--
Molecule: CCCCc1nc2cc(/C=C/C(=O)NO)ccc2n1CCN(CC)CC
Class Label: active
--
Molecule: CN(C)CCCC(=O)Nc1ccc(Cn2nnc3c2C(=O)c2nnn(Cc4ccc(NC(=O)CCCN(C)C)cc4)c2C3=O)cc1
Class Label: inactive
--
Molecule: COc1ccc(-c2c(C#N)c(N)nc3c2CCCc2ccc(F)cc2-3)cc1OC
Class Label: active
--
Molecule: COc1ccc(-c2[nH]ncc2-c2cc(OC)c(OC)c(OC)c2)cc1
Class Label: active
--
Molecule: CCCCC#Cc1cccc(=O)o1
Class Label: inactive
--
Molecule: COc1ccc2sc3c(NCCCNCCO)nc4ccccc4c3c(=O)c2c1
Class Label: inactive
--
Molecule: COc1cc(/C=C/C(=O)c2cc(OC)c(OC)c(OC)c2)cc(OC)c1OC
Class Label: inactive
